tested on: lactic acid bacteria (LAB); experiment: Incubation of single ginsenoside with LAB (formation rate of metabolite ginsenoside); assay type: in vitro ADME; conditions: 7 days, 37 °C, MRS broth
REPORTED_METRIC: Metabolite formation on incubation of single ginsenoside with LAB

{"STRUCTURE_AS_SMILES": "CC(C)=CCC[C@](C)(O[C@@H]1O[C@H](CO)[C@@H](O)[C@H](O)[C@H]1O)[C@H]1CC[C@]2(C)[C@@H]1[C@H](O)C[C@@H]1[C@@]3(C)CC[C@H](O)C(C)(C)[C@@H]3[C@@H](O[C@@H]3O[C@H](CO)[C@@H](O)[C@H](O)[C@H]3O)C[C@]12C", "TARGET_OF_ASSAY": "lactic acid bacteria (LAB)", "VALUE_MEASURED": "produced GRh1"}
{"STRUCTURE_AS_SMILES": "CC(C)=CCC[C@](C)(O[C@@H]1O[C@H](CO)[C@@H](O)[C@H](O)[C@H]1O)[C@H]1CC[C@]2(C)[C@@H]1[C@H](O)C[C@@H]1[C@@]3(C)CC[C@H](O)C(C)(C)[C@@H]3[C@@H](O[C@@H]3O[C@H](CO)[C@@H](O)[C@H](O)[C@H]3O[C@@H]3O[C@@H](C)[C@H](O)[C@@H](O)[C@H]3O)C[C@]12C", "TARGET_OF_ASSAY": "lactic acid bacteria (LAB)", "VALUE_MEASURED": "produced GRh1"}
{"STRUCTURE_AS_SMILES": "CC(C)=CCC[C@](C)(O)[C@H]1CC[C@]2(C)[C@@H]1[C@H](O)C[C@@H]1[C@@]3(C)CC[C@H](O)C(C)(C)[C@@H]3[C@@H](O[C@@H]3O[C@H](CO)[C@@H](O)[C@H](O)[C@H]3O[C@@H]3O[C@H](CO)[C@@H](O)[C@H](O)[C@H]3O)C[C@]12C", "TARGET_OF_ASSAY": "lactic acid bacteria (LAB)", "VALUE_MEASURED": "produced GRh1"}
